biological target: Peroxisome proliferator-activated receptor alpha (Homo sapiens, UniProt Q07869); experiment: Agonist activity at human PPARalpha receptor by cell based transactivation assay
Sequence (Q07869 whole entry): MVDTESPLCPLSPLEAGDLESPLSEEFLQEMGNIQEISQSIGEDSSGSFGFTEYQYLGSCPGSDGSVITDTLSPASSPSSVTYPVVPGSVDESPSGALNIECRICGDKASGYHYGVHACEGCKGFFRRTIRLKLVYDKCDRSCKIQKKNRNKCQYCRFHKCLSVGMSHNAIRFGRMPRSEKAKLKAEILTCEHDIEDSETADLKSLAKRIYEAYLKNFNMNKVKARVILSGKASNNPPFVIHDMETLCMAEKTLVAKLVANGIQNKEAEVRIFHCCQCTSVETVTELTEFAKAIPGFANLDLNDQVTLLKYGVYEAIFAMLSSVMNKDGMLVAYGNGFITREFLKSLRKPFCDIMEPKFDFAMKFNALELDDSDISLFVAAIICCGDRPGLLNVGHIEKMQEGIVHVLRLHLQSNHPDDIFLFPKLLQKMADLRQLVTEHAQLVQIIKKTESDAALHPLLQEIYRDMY
Please provide measured EC50 for the entries that follow.
Returns: string containing the number followed by the unit.

Recorded EC50, per entry:
• CCCc1cc(C(=O)c2ccccc2)ccc1OCCCn1ccc2c(OC(C)(C)C(=O)O)cccc21 = 30 nM
• CCCc1cc(C(=O)c2ccc(F)cc2)ccc1OCCCn1ccc2cc(OC(C)(C)C(=O)O)ccc21 = 130 nM

We next turn to a different compound, shown below.
Recorded result, CCCc1cc(C(=O)c2ccc(-c3ccccc3)cc2)ccc1OCCCn1ccc2cc(OC(C)(C)C(=O)O)ccc21 , EC50: 1920 nM
